SYSTEM UNDER TEST: CK1ϵ (Homo sapiens (Human))
Sequence (P49674 whole entry): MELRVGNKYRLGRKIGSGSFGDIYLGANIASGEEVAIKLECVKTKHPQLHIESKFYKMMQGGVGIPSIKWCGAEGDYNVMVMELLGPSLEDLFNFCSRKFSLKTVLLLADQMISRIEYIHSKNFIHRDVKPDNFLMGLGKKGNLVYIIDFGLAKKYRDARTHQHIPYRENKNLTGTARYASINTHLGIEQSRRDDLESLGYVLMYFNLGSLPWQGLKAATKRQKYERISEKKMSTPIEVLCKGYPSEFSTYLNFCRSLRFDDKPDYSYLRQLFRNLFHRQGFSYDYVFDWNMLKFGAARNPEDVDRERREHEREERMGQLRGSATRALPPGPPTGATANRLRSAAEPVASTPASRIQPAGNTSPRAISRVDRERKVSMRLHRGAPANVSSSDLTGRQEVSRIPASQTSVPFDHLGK
PROCEDURE SUMMARY: LanthaScreen Eu kinase binding assay, CK1ϵ
inhibition at 1 µM values, listed per item

[
  {
    "MOLECULE": "Cc1cccc(-c2nc(C#CCCO)[nH]c2-c2ccncc2)c1 [IM-41]",
    "SYSTEM UNDER TEST": "CK1ϵ (Homo sapiens (Human))",
    "inhibition at 1 µM": "38%"
  },
  {
    "MOLECULE": "COC(=O)c1ccc(-c2nc(-c3cccc(C)c3)c(-c3ccncc3)[nH]2)cc1 [IM-40]",
    "SYSTEM UNDER TEST": "CK1ϵ (Homo sapiens (Human))",
    "inhibition at 1 µM": "43%"
  },
  {
    "MOLECULE": "Cc1cccc(-c2nc(-c3ccc(N)cc3)[nH]c2-c2ccncc2)c1 [IM-34]",
    "SYSTEM UNDER TEST": "CK1ϵ (Homo sapiens (Human))",
    "inhibition at 1 µM": "28%"
  },
  {
    "MOLECULE": "Cc1cccc(-c2nc(-c3ccc(C#N)cc3)[nH]c2-c2ccncc2)c1 [IM-36]",
    "SYSTEM UNDER TEST": "CK1ϵ (Homo sapiens (Human))",
    "inhibition at 1 µM": "36%"
  },
  {
    "MOLECULE": "Cc1cccc(-c2nc(-c3ccc([N+](=O)[O-])cc3)[nH]c2-c2ccncc2)c1 [IM-32]",
    "SYSTEM UNDER TEST": "CK1ϵ (Homo sapiens (Human))",
    "inhibition at 1 µM": "47%"
  },
  {
    "MOLECULE": "Cc1cccc(-c2nc(-c3ccc(NS(C)(=O)=O)cc3)[nH]c2-c2ccncc2)c1 [IM-35]",
    "SYSTEM UNDER TEST": "CK1ϵ (Homo sapiens (Human))",
    "inhibition at 1 µM": "40%"
  },
  {
    "MOLECULE": "C[S+]([O-])c1ccc(-c2nc(-c3ccncc3)c(-c3ccc(F)cc3)o2)cc1 (centres unmarked) [OZ-12]",
    "SYSTEM UNDER TEST": "CK1ϵ (Homo sapiens (Human))",
    "inhibition at 1 µM": "51%"
  },
  {
    "MOLECULE": "Cc1cccc(-c2nc(-c3ccccc3O)[nH]c2C2=CCOCC2)c1 [IM-14]",
    "SYSTEM UNDER TEST": "CK1ϵ (Homo sapiens (Human))",
    "inhibition at 1 µM": "3%"
  },
  {
    "MOLECULE": "Cc1cccc(-c2nc(-c3ccccc3Cl)[nH]c2C2=CCOCC2)c1 [IM-12]",
    "SYSTEM UNDER TEST": "CK1ϵ (Homo sapiens (Human))",
    "inhibition at 1 µM": "10%"
  },
  {
    "MOLECULE": "Cc1cccc(-c2nc(-c3ccccc3Br)[nH]c2C2=CCOCC2)c1 [IM-13]",
    "SYSTEM UNDER TEST": "CK1ϵ (Homo sapiens (Human))",
    "inhibition at 1 µM": "23%"
  },
  {
    "MOLECULE": "Cc1cccc(-c2nc(-c3ccc4ccccc4c3)[nH]c2-c2ccncc2)c1 [IM-01]",
    "SYSTEM UNDER TEST": "CK1ϵ (Homo sapiens (Human))",
    "inhibition at 1 µM": "6%"
  }
]
